Measured values drawn from ChEMBL document CHEMBL1201862 for this set.

- Tested on: A498
- protocolSummary: NCI tumour cell line growth inhibition, 48 h
Activity calls are given as the source filed them. Rule as the data show it: active = GI50 up to about 1.1 µM and inactive = higher.
Classes used: active, inactive

compound	labelClass
c1ccc(/N=c2\snc3scc(-c4ccccc4)n23)cc1	inactive
S=c1[nH]c(=S)c2cc(Sc3ccc4[nH]c(=S)[nH]c(=S)c4c3)ccc2[nH]1	inactive
C/C(=N\N=C(/S)N1CC2CCC(CC2)C1)c1ccncn1	active
CCOC(=O)C1=C(C)N(NC(=O)OC)C2(N)N(NC(=O)OC)C(C)=C(C(=O)OCC)C12C#N (configuration not stated)	inactive
Oc1ccc(C[C@@H]2CN[C@H](Cc3ccc(O)c(Br)c3)CN2)cc1	inactive
CCCCCCN(CCCCCC)C1=CC(=O)C(=O)c2ccccc21	inactive
COC(=O)C1(Cc2ccc3c(c2)CCC3)Cc2ccccc2C1O (configuration not stated)	inactive
CC1=C(C(=O)Nc2ccccc2)C(c2ccc(C)o2)C(C#N)=C(SCc2ccccc2)N1 (configuration not stated)	inactive
S=C1SCN(Cc2ccco2)CN1c1ccc(Br)cc1	inactive
O=C(NCc1ccccc1)c1cc2ccccc2o/c1=N\c1cccc(C(F)(F)F)c1	inactive
CCOC(=O)Nc1ccc(S(=O)(=O)Nn2cnnc2)cc1	inactive
C=C(CCOC)CCC1CCCCC(=C)C1=O (configuration not stated)	inactive
